Target: ATP-dependent DNA helicase Q1 (Homo sapiens) (UniProt P46063)
Sequence (P46063 whole entry, looked up): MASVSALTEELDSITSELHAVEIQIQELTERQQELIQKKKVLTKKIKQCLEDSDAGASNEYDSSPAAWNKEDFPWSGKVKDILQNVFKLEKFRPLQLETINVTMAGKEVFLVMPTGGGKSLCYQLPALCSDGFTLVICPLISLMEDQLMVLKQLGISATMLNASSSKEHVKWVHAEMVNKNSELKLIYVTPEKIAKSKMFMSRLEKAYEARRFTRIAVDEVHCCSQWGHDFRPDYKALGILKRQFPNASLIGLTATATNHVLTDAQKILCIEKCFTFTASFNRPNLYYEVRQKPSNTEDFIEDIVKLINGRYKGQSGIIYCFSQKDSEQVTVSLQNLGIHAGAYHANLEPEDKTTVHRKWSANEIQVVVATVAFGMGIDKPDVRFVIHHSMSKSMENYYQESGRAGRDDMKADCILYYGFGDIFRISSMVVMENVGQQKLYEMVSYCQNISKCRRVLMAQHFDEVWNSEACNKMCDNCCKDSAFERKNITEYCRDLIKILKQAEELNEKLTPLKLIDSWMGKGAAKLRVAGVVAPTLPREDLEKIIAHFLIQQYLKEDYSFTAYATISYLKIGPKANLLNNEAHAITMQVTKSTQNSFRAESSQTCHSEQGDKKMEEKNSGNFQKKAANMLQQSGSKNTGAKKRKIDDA
Test: qHTS Assay for Inhibitors of RecQ-Like Dna Helicase 1 (RECQ1); also: nearly all actives have a fitted effect of over 30% in size
Details: RECQ1 DNA unwinding, red fluorescence kinetic read; series mostly up to 57.3 µM
Among all 240,000 compounds or so, about 1,300 (0.54%) were called active. Not shown: some 1% with an inconclusive outcome. Calls follow the shape of the dose curve; as a rule, active = well fitted inhibition curve with a large enough effect; inconclusive = small, poorly fitted or top-dose-only effect; inactive = flat fitted curve, though single readings scatter. This excerpt belongs to a sample that is enriched for actives.
Permitted responses: active, inactive

Worked examples follow.
CCCN(C/C=C/I)C1CCc2ccc(O)cc2C1 (stereo unspecified) ... inactive
N#Cc1cc(Br)c(O)c(Br)c1 ... inactive
C[C@H]1C/C=C/[C@@H]2[C@@H]3O[C@]3(C)[C@@H](C)[C@H]3[C@H](Cc4ccccc4)NC(=O)[C@]32OC(=O)O/C=C/[C@](C)(O)C1=O ... inactive
C=CCN1CCC2(C)c3cc(O)ccc3CC1[C@@H]2C (stereo partly specified) ... inactive
CCCCCCCCCCCCN=C(N)N ... inactive

Please let me know the test result on file for O=C(OCC1O[C@@H](OC(=O)c2cc(O)c(O)c(O)c2)[C@@H](OC(=O)c2cc(O)c(O)c(O)c2)[C@@H](OC(=O)c2cc(O)c(O)c(O)c2)[C@@H]1OC(=O)c1cc(O)c(O)c(O)c1)c1cc(O)c(O)c(O)c1 (stereo partly specified) . active
